biological target: Nanoluciferase-BRD9 fusion protein (Homo sapiens (Human), UniProt Q9H8M2); experiment: SYO1 BRD9 NanoLuc degradation assay; format: cell-based; conditions: Table 5C; SYO-1 cells expressing 3×FLAG-NLuc-BRD9, 6 hours; read-out: SYO1 BRD9-NanoLuc degradation IC50
Sequence (Q9H8M2 whole entry, the tested form may be a part): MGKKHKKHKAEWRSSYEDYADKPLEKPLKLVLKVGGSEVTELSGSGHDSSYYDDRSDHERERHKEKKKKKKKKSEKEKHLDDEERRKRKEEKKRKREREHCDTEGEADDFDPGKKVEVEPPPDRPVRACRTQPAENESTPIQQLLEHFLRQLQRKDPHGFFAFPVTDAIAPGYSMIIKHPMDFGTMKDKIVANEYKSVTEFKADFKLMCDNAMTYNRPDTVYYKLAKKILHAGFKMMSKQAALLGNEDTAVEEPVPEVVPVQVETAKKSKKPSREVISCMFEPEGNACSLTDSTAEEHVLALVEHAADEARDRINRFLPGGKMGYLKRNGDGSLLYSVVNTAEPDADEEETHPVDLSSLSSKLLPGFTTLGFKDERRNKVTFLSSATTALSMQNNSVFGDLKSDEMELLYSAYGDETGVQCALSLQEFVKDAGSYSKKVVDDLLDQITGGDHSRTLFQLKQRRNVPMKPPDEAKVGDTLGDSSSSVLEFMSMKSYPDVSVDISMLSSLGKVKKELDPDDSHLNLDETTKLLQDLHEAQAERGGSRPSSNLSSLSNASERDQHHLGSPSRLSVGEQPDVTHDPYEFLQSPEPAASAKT
Reported DC50 values follow for various compounds

Check out these entries, answers already filled in.
COc1cc(-c2cn(C)c(=O)c3cnccc23)cc(OC)c1CN1CC(Oc2ccc3c(c2)CN(C2CCC(=O)NC2=O)C3=O)C1 (stereo not drawn)    < 0.01 µM
COc1cc(-c2cn(C)c(=O)c3cn(C)nc23)cc(OC)c1CN1CCN(CCC2CCN(c3ccc4c(c3)C(=O)N(C3CCC(=O)NC3=O)C4)CC2)CC1 (stereo not drawn)    < 0.01 µM

DC50 reported for this compound COc1cccc(OC)c1CN1CCN(c2ccc3c(c2)C(=O)N(C2CCC(=O)NC2=O)C3)CC1 (stereo not drawn) : > 1 µM

DC50 reported for this compound COc1cc(-c2cc(C(F)F)c(=O)n(C)c2C)cc(OC)c1CN1CCC(CN2CCC3(CC2)CN(c2ccc4c(c2)C(=O)N(C2CCC(=O)NC2=O)C4)C3)CC1 (stereo not drawn) : < 0.01 µM

DC50 reported for this compound COc1cc(-c2cc(C(F)F)c(=O)n(C)c2)cc(OC)c1CN1CCC(CN2CCC3(CC2)CN(c2ccc4c(c2)C(=O)N(C2CCC(=O)NC2=O)C4)C3)CC1 (stereo not drawn) : < 0.01 µM

DC50 reported for this compound COc1cc(-c2cc(C(F)F)c(=O)n(C)c2C)cc(OC)c1CN1CCC2(C1)CN(c1ccc3c(c1)C(=O)N(C1CCC(=O)NC1=O)C3)C2 (stereo not drawn) : < 0.01 µM

meta.source: patent US11414416B1
